System: P. aeruginosa CIP107051
Assay: MIC of ceftazidime (CAZ) at fixed concentration of compound (synergy), broth microdilution
Assay type: cell-based
Conditions: strain CIP107051; MIC of CAZ, compound fixed at 4 μg/mL
Procedure: Log phase bacterial suspensions were adjusted to a final density of 5×10^5 cfu/mL in cation-adjusted Mueller-Hinton broth (Becton-Dickinson) and added to each well (98 μL). Microplates were incubated for 16-20 h at 35° C. in ambient air. The MIC of the compounds was defined as the lowest concentration of said compounds that prevented bacterial growth as read by visual inspection.
Parameter Measured: MIC combination of CAZ and compounds of the invention at 4 μg/mL (µg/mL)
Field: numeric (µg/mL). Do not append units.

// solved cases for MIC combination of CAZ and compounds of the invention at 4 μg/mL follow
{"Compound": "CC(=O)Nc1cnn(C2=CC3CN(C2)C(=O)N3OS(=O)(=O)[O-])c1.[Na+] (stereo not shown)", "Uom": "µg/mL", "Recorded Number": 4}
{"Compound": "NC(=O)c1cn(C2=CC3CN(C2)C(=O)N3OS(=O)(=O)[O-])nn1.[Na+] (stereo not shown)", "Uom": "µg/mL", "Recorded Number": 8}
{"Compound": "O=C1N2CC(n3cc(S(=O)(=O)NCCO)cn3)=CC(C2)N1OS(=O)(=O)[O-].[Na+] (stereo not shown)", "Uom": "µg/mL", "Recorded Number": 8}

Entry O=C([O-])CCc1cn(C2=CC3CN(C2)C(=O)N3OS(=O)(=O)[O-])nn1.[Na+].[Na+] (stereo not shown) under P. aeruginosa CIP107051 had MIC combination of CAZ and compounds of the invention at 4 μg/mL of 8
